- experiment_description: CREB reporter modulators under forskolin, primary screen, cell-based, PC12, CRE-LacZ reporter, forskolin-stimulated (AID 1146);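 further: PC12 cells with 6xCRE LacZ reporter stimulated by forskolin 10 µM; beta-galactosidase reporter signal reflecting CREB driven transcription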
- test_parameters: luminescence, 4.5 h, higher = more signal, called active from +8 up or from −8 down
So basically every entry gets a class from its z-score, ranges being zone 1: < -0.4; zone 2: ≥ -0.4 and < 0.6; zone 3: ≥ 0.6

The examples below pair each entry with its known result.
COC(=O)CC=C[C@@H](C)[C@@H](C=NOC[C@H]1O[C@H](c2ccccc2)C=C[C@@H]1Oc1ccc(OC)cc1)NS(=O)(=O)c1ccc(C)cc1 | zone 2
COc1ccc(O[C@H]2C=C[C@@H](c3ccccc3)O[C@@H]2CON=C(C)C)cc1 | zone 2
C[C@H](ON=C1[C@H]2CCn3c(=O)n(-c4ccccc4)c(=O)n3[C@H]2[C@H](O)[C@@H]2O[C@H]12)c1cn([C@H](CO)Cc2ccccc2)nn1 | zone 2
COC(=O)CC=C[C@@H](C)[C@@H](C=NOCC[C@@H]1C=C[C@H](OC(C)=O)[C@@H](COC(C)=O)O1)OC | zone 2
CC(C)CON=C1[C@H]2CCn3c(=O)n(Cc4cc5c(cc4Cl)OCO5)c(=O)n3[C@H]2[C@H](O)[C@@H]2O[C@H]12 | zone 3
CC(CCC(=O)OC[C@H]1O[C@H](C#Cc2ccccc2)C=C[C@@H]1Oc1ccc(C)cc1)=NO[C@H](C)c1cn([C@H](CO)Cc2ccccc2)nn1 | zone 3
CCOC(=O)[C@H](Cc1ccccc1)NC(=O)OC1CC(CCC2CC(CC)=NO2)OC2(CCCC(COC(=O)NCCC(C)C)O2)C1 (stereo not given in full) | zone 3
CO[C@H]1COC(=O)[C@H](C)NC(=O)[C@@H](C)COC(=O)[C@H]2CCCN2C(=O)CC=C[C@H]1C | zone 1

Please indicate the class for `C[C@H]1COC(=O)[C@@H]2CCCN2C(=O)[C@@H](C)COC(=O)[C@H](Cc2ccccc2)NC1=O` based on its z-score.
zone 2

Follow-up entry: CCOC(=O)[C@H](Cc1ccccc1)NC(=O)CCC1CC(OC(=O)NCCc2ccc(F)cc2)CC2(CCCC(COC(=O)NCc3ccccc3)O2)O1 (stereo not given in full)
zone 3

How about `C=COC[C@@H]1CN2[C@@H](CC[C@@H](C)[C@@H]2c2ccc(Br)cc2)C(=O)O1` ?
zone 1

* * *

composite z-score values by entry
- experiment_description: binders of probe aFSTL3 on microarray, primary screen, stem cell growth factor project, biochemical, small-molecule microarray, fluorescence 635/667 (AID 1064);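 further: measures binding of the biotinylated anti-FSTL3 antibody to printed compounds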
- test_parameters: higher = more signal
Write no unit; give the number alone.

Answered examples (3):
Cc1ccc(S(=O)(=O)N[C@H]2COC(=O)CC=C[C@H](C)[C@@H](NS(=O)(=O)c3ccc(C)cc3)COC(=O)CC=C[C@@H]2C)cc1 | -0.546
CCOC(=O)[C@H](Cc1ccccc1)NC(=O)CCC1CC(OC(=O)NCCc2ccc(F)cc2)CC2(CCCC(COC(=O)NCCc3ccc(Cl)cc3)O2)O1 (some centres undefined) | -0.431
CCOC(=O)NN=C1C[C@@H](O)[C@@H](O)[C@@H]2[C@@H]3C(=O)N(C(C)(C)C)C(=O)[C@@H]3CC[C@H]12 | -0.306

Can you look up the measured composite z-score of C[C@H]1CC[C@H]2C(=O)OC(CO)CN2[C@@H]1c1ccc(Br)cc1 (some centres undefined) for me?
-0.321

* * *

Reported values of composite z-score for individual entries
- System: Lefty1
- experiment_description: Lefty1 binders on small-molecule microarrays, primary screen, biochemical, small-molecule microarray, 635/667 nm fluorescence (AID 1139)
- test_parameters: small-molecule microarray binding, fluorescence 635/667; higher = more signal
Just the number, please, no unit attached.

Using the record for `CCCNC(=O)OC[C@H]1O[C@H](CCON=Cc2ccc(C(=O)N3[C@H](c4ccc(C)cc4)[C@@H](C)CC[C@H]3C(=O)OC)cc2)C=C[C@@H]1Oc1ccc(OC)cc1` , report its composite z-score.
0.58

What do you get for `COC(=O)[C@@H]1CC[C@H](C)[C@@H](c2ccc(C)cc2)N1C(=O)c1ccc(C=NO[C@H](C)c2cn([C@@H]3COC[C@H]3O)nn2)cc1` ?
0.551

And for `C#CCCCON=C1C[C@@H](O)[C@@H](O)[C@@H]2[C@@H]3C(=O)N(c4ccc(F)cc4F)C(=O)[C@@H]3CC[C@H]12` ?
0.662

What do you get for `O=C1C=C[C@@H](O)[C@@H]2[C@@H]3C(=O)N(C[C@@H]4CCCO4)C(=O)[C@@H]3CC[C@@H]12` ?
0.756

And the next one, `CC(C)=CCCC(C)=CCON=C1C[C@@H](O)[C@@H](O)[C@@H]2[C@@H]3C(=O)N(C(C)(C)C)C(=O)[C@@H]3CC[C@H]12` ?
0.536

One more compound: COC(=O)[C@H](C)NC(=O)CCC1CC(OC(=O)NCc2ccc3c(c2)OCO3)CC2(CCCC(COC(=O)NCc3cccc(C(F)(F)F)c3)O2)O1 (stereo partly specified)
1.15

* * *

Quick reference for z-score among some compounds
- experiment_description: S. cerevisiae RM11-1a growth modifiers, primary screen, strain RM11-1a, OD600, basal, 24 h (AID 1177);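 further: cultures grown under basal conditions with no added stressor; test concentration not given here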
- test_parameters: OD600, 24 h, higher = more signal, called active from +8 up or from −8 down
API doc: respond with a numeric literal and nothing else, no unit.

The cases that follow already have their z-score on record.
CCOC(=O)CCN1C(=O)[C@H]2[C@H]3[C@H](O)[C@H](O)CC(=NNC(=O)OCc4ccccc4)[C@@H]3CC[C@H]2C1=O | 0.116
CC(C)CON=C1C[C@@H](O)[C@@H](O)[C@@H]2[C@@H]3C(=O)N(C4CCCCC4)C(=O)[C@@H]3CC[C@@H]12 | 0.523
COC(=O)CC=C[C@@H](C)[C@@H](C=NO[C@@H](C)c1cc(-c2c(C)cc(C)cc2C)no1)NS(=O)(=O)c1ccc(C)cc1 | -0.2

Continue with the compound presented below.
Name the reported z-score value associated with the compound `C[C@@H]1CC[C@H]2C(=O)O[C@@H](COc3ccc(C(C)(C)C)cc3)CN2[C@@H]1c1ccc(Br)cc1`
-0.176

* * *

- System: Lefty1
- experiment_description: Lefty1 binders on small-molecule microarrays, primary screen, biochemical, small-molecule microarray, 635/667 nm fluorescence (AID 1139)
- test_parameters: small-molecule microarray binding, fluorescence 635/667; higher = more signal
readout_type: composite z-score
Just the number, please, no unit attached.

A selection of reference data follows.
CCOC(=O)C1=NO[C@]2(C=C(Br)C3(OCCCO3)[C@H]3O[C@H]32)C1 | -0.168
O=C1[C@H]2[C@H]3[C@H](O)[C@H](O)CC(=NOC[C@@H](O)COCc4ccco4)[C@H]3CC[C@H]2C(=O)N1C[C@@H]1CCCO1 | 1.34
CCOC(=O)[C@H](Cc1ccccc1)NC(=O)CCC1CC(OC(=O)NCc2cccc3ccccc23)CC2(CCCC(COC(=O)NCc3cccc(C(F)(F)F)c3)O2)O1 (some centres not stated) | 0.0217

Would you mind telling me what composite z-score value was observed for `COc1ccc(C#C[C@@H]2C=C[C@H](OC(C)=O)[C@@H](COC(C)=O)O2)cc1` ?
0.649

For `CCN1C(=O)[C@H]2[C@H]3[C@H](O)[C@H](O)CC(=NO[C@@H](C)c4cn([C@H](CO)Cc5ccccc5)nn4)[C@@H]3CC[C@H]2C1=O` then?
0.926

Note, next up: `O=C1C[C@@H](O)[C@@H](O)[C@@H]2[C@@H]3C(=O)N(C[C@@H]4CCCO4)C(=O)[C@@H]3CC[C@H]12`
0.548

Another compound: `CCc1cc2c(nc1CC)CCN(CCC(C)=NO[C@@H](C)c1cn([C@H](CO)Cc3ccccc3)nn1)C2`
0.529

* * *

- experimental_target: Fibroblast growth factor 2 (Homo sapiens) (UniProt P09038)
- Sequence (P09038 whole entry, looked up): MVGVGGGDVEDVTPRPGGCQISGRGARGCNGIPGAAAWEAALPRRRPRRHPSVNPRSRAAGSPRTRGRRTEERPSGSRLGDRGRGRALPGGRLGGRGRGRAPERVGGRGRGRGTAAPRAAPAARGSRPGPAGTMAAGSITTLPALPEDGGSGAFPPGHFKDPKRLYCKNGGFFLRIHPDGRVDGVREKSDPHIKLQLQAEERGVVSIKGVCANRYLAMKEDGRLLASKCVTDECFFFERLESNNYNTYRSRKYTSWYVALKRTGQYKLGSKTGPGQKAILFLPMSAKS
- experiment_description: FGF2 binders on small-molecule microarrays, primary screen, biochemical, small-molecule microarray, 635/667 nm fluorescence (AID 1133)
- test_parameters: small-molecule microarray binding, FGF2, fluorescence 635/667; higher = more signal
# composite z-score listing for each entry below
Please reply with the number alone, leaving off any unit.

Reported composite z-score, molecule `CCc1cc2c(nc1CC)CCN(CCC(C)=NO[C@@H](C)c1cn([C@H](CO)Cc3ccccc3)nn1)C2` : ____
0.0391

Repeat for the following molecule: `CC(C)CON=C1C[C@@H](O)[C@@H](O)[C@@H]2[C@@H]3C(=O)N(C4CCCCC4)C(=O)[C@@H]3CC[C@@H]12`
-0.309

`CC(CCN1CCCCc2nc(C)c(C)cc21)=NOC[C@@H](C)[C@H](OCc1ccccc1)C(C)C` , same question.
-0.84

Also need `CO[C@@H]1COC(=O)[C@H](CCSC)NC(=O)CC=C[C@@H](C)COC(=O)CCC[C@H]1C` , thanks.
1.97

Provenance of the data: PubChem BioAssay
